# Tested on: Zika virus NS2B-NS3 protease (linked construct)
# assay-overview: Primary screen NINDS Rhodamine qHTS for Zika virus inhibitors (AID 1347160); also: nearly all actives have a fitted effect of over 55% in size
# condition-context: purified NS2B-NS3 protease, Rhodamine110 substrate fluorescence; series mostly up to 57.1 µM
Inconclusive results are not listed. Calls of active or inactive are those of the source. Calls follow the shape of the dose curve; as a rule, active = well fitted inhibition curve with a large enough effect; inconclusive = small, poorly fitted or top-dose-only effect; inactive = no such curve, though single readings can be large or run the other way.
Could you please pick one outcome from this set? True (active), False (inactive)

Here are 10 molecules together with their reported answers.
molecule: C=CC(C)(C)C(=O)[C@@H](C)[C@@H]1CC[C@](C)(C=C)O1
label-value: False
--
molecule: Oc1ccc(/C=C2/c3cc(O)cc(O)c3C(c3ccc(O)cc3)[C@H]2c2cc(O)cc(O)c2)cc1 (some centres undefined)
label-value: True
--
molecule: C[N+]1(C)[C@@H]2CC[C@H]1CC(OC(=O)C(O)c1ccccc1)C2 (some centres undefined)
label-value: False
--
molecule: COc1ccc(C(=O)N(CCC(C)C)Cc2nc(C)c(C)n2Cc2ccccc2C)c(OC)c1
label-value: False
--
molecule: Cc1[nH]c(/C=C2\C(=O)Nc3ccc(F)cc32)c(C)c1C(=O)NC[C@H](O)CN1CCOCC1
label-value: False
--
molecule: C/C=C/C[C@@H](C)[C@@H](O)[C@H]1C(=O)N[C@@H](CC)C(=O)N(C)CC(=O)N(C)[C@@H](CC(C)C)C(=O)N[C@@H](C(C)C)C(=O)N(C)[C@@H](CC(C)C)C(=O)N[C@@H](C)C(=O)N[C@H](C)C(=O)N(C)[C@@H](CC(C)C)C(=O)N(C)[C@@H](CC(C)C)C(=O)N(C)[C@H](C(C)C)C(=O)N1C
label-value: False
--
molecule: CC[C@@H]1C[C@@]2(CC)OC(=O)[C@@]3(CC)OC(=O)[C@@H]1[C@@H]23
label-value: False
--
molecule: C[C@@H]1O[C@H](c2c(O)cc(O)c3c(=O)cc(-c4ccc(O)cc4)oc23)[C@H](O)[C@H](O)[C@H]1O
label-value: True
--
molecule: COc1cc2nc(-c3cc(F)ccc3O)nc(N[C@@H]3CNC[C@H]3C(C)(C)O)c2cc1OC
label-value: False
--
molecule: Cc1cc2nc(NCCCO)n(CC(=O)c3cc(C(C)(C)C)c(O)c(C(C)(C)C)c3)c2cc1C
label-value: False

Which result was noted for this molecule in the test: CC1(C)CC23[C@@H]4CC(=O)[C@@H]2COC(=O)[C@@H]3CC[C@H]41 False

Which result was noted for this molecule in the test: C1=C2CCCN[C@@H]2[C@@H]2CCN3CCCC[C@@H]3[C@H](C1)C2 False

Which result was noted for this molecule in the test: CCCc1c(C(C)C)nc(C(C)C)c([C@@H](C)O)c1-c1ccc(F)cc1O True

Which result was noted for this molecule in the test: Cn1cnc(-c2nccc3c(=O)[nH]c(OCCCC(F)(F)F)nc23)c1 False

Which result was noted for this molecule in the test: Cc1cc(C)c(-c2csc(NC(=O)c3ccccc3)n2)c(C)c1 False

Which result was noted for this molecule in the test: O=S(=O)(c1cccc2ccccc12)n1ccc2ccc(N3CCN4CCCC4C3)cc21 (centres undefined) False

Which result was noted for this molecule in the test: CN([C@H]1c2cc(OCCCC(F)(F)F)ccc2OC(C)(C)[C@@H]1O)S(C)(=O)=O False

Which result was noted for this molecule in the test: C=C(C)C(=O)O[C@H]1C[C@H](C)[C@@H](OC(C)=O)CC[C@@]2(C)O[C@@H]2[C@H]2OC(=O)C(COC(C)=O)=C12 True

Which result was noted for this molecule in the test: CC(O)/C=C/C1(O)C(C)(C)CC(O)CC1(C)O (centres undefined) False

Which result was noted for this molecule in the test: C=C[C@]1(C)CC[C@@H]([C@H](C)C(=O)/C=C/C(C)C)O1 False

Just for reference, PubChem BioAssay (NCATS) is where these values come from.
